# procedure.summary: ATG_TGFb_CIS: Attagene CIS-FACTORIAL HepG2 Assay for human Transforming Growth Factor (TGF) (AID 2282967)
# measurement.parameters: HepG2 Attagene CIS TGFb reporter, mRNA transcription; actives raise or lower the signal
# Method: ATG_CIS is a cell-based, multiplexed-readout assay that uses HepG2, a human liver cell line, with measurements taken at 24 hours after chemical dosing in a 24-well plate.ATG_TGFb_CIS is one of 52 assay component(s) measured or calculated from the ATG_CIS assay. […] This assay endpoint, ATG_TGFb_CIS, was analyzed with bidirectional fitting relative to DMSO as the negative control and baseline of activity. […]
The source made the active and inactive calls. How the source made its calls: active means hit-call score of the fitted dose curve at least 0.9, where 1 is the maximum; inactive means score below 0.9.
The categories you may choose from are T (active), F (inactive)

Answered examples (4):
compound | class.assignment
O=C(O)COc1ccc(Cl)cc1Cl | F
CC(C)(C)C(O)C(Oc1ccc(Cl)cc1)n1cncn1 (stereo unspecified) | F
N#Cc1c(Cl)c(Cl)c(Cl)c(C#N)c1Cl | F
O=C(Nc1ccccc1)Nc1cnns1 | F

For CC[C@H](C)[C@H]1O[C@]2(C=C[C@@H]1C)C[C@@H]1C[C@@H](C/C=C(\C)[C@@H](O[C@H]3C[C@H](OC)[C@@H](O[C@H]4C[C@H](OC)[C@@H](O)[C@H](C)O4)[C@H](C)O3)[C@@H](C)/C=C/C=C3\CO[C@@H]4[C@H](O)C(C)=C[C@@H](C(=O)O1)[C@]34O)O2 (tested in a mixture with another compound) , which call appears in the assay record?
F

For O=C(O)C(F)(F)C(F)(F)C(F)(F)C(F)(F)C(F)(F)C(F)(F)C(F)(F)F , which call appears in the assay record?
F

For CC(C)N(C(=O)COc1nnc(C(F)(F)F)s1)c1ccc(F)cc1 , which call appears in the assay record?
F

---

# Read-out: ABC Transporter (ABCB11), ABCB11 (gene 8647)
# procedure.summary: CLD_ABCB11_24hr: CellzDirect (CLD) Gene Expression Assay for ABC Transporter (ABCB11) at 24 hours (AID 2283674)
Results filed as inconclusive are left out. The source made the active and inactive calls. The calls were made as follows: active = hit-call score of the fitted dose curve at least 0.9, where 1 is the maximum; inactive = score below 0.9.
The categories you may choose from are active, inactive

compound | class.assignment
N#CN | inactive
CC[C@H](C)[C@H]1O[C@]2(C=C[C@@H]1C)C[C@@H]1C[C@@H](C/C=C(\C)[C@@H](O[C@H]3C[C@H](OC)[C@@H](O[C@H]4C[C@H](OC)[C@@H](O)[C@H](C)O4)[C@H](C)O3)[C@@H](C)/C=C/C=C3\CO[C@@H]4[C@H](O)C(C)=C[C@@H](C(=O)O1)[C@]34O)O2 (tested in a mixture with another compound) | active
O=S1OCC2C(CO1)C1(Cl)C(Cl)=C(Cl)C2(Cl)C1(Cl)Cl (stereo not given) | inactive
Cc1cc(C)nc(NC(=O)NS(=O)(=O)c2ccccc2C(=O)OC2COC2)n1 | inactive

For N#Cc1c(Cl)c(Cl)c(Cl)c(C#N)c1Cl , which call appears in the assay record?
inactive

---

# Read-out: CFLAR gene, CFLAR (gene 8837)
# procedure.summary: LTEA_HepaRG_CFLAR: Life Technologies and Expression Analysis (LTEA) Assay for CFLAR gene using HepaRG (AID 2283455)
# measurement.parameters: mRNA level, 48 h; actives raise or lower the signal
Active and inactive are the calls of the source. How the source made its calls: active means hit-call score of the fitted dose curve at least 0.9, where 1 is the maximum; inactive means score below 0.9.

molecule | AC50
O=[N+]([O-])c1c(Cl)c(Cl)c(Cl)c(Cl)c1Cl | inactive
Clc1ccccc1-c1nnc(-c2ccccc2Cl)nn1 | inactive
CCC(C)(NC(=O)c1cc(Cl)c(C)c(Cl)c1)C(=O)CCl (stereo not drawn) | 86.5 µM (active)
